measured on: human Farnesoid X Receptor (FXR) ligand binding domain (GST-FXR LBD) (Homo sapiens, UniProt Q96RI1)
Construct: purchased Invitrogen
Sequence (Q96RI1 193-472 isoform Q96RI1-2): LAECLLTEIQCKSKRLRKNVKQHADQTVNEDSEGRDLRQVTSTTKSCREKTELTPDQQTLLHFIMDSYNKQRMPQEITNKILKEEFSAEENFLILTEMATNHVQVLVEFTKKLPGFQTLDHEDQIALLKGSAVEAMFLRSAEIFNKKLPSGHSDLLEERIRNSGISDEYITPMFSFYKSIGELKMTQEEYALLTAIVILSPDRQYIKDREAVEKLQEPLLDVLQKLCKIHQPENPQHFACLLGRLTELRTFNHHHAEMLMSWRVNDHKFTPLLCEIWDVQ
protocol text: Human GST-FXR LBD co-activator interaction assay (HTRF)
Type: biochemical
condition: GST-FXR LBD / biotin-SRC-1 peptide FRET; response relative to GW4064; read-out: FXR Co-activator interaction assay (EC50)
metric name: pEC50
Value format note: pEC50 is -log10 of concentration (mol/L); just state the number.

In: I am curious: what pEC50 value has been reported for O=C(O)c1cnc(N2C3CC[C@H]2CC(OCc2c(-c4ccccc4C(F)(F)F)noc2C2CC2)C3)cn1 (stereo partly shown) ?
Out: 8.05

In: Follow-up entry: O=C(O)c1cnc(N2C3CC[C@H]2C[C@H](OCc2c(-c4ccccc4OC(F)(F)F)noc2C2CC2)C3)nc1
Out: 8.00

In: And for O=C(O)c1nsc2cc(N3C4CC[C@H]3CC(OCc3c(-c5ccccc5OC(F)(F)F)noc3C3CC3)C4)ccc12 (stereo partly shown) ?
Out: 9.22

More entries:
In: Entry O=C(O)c1cnc(N2C3CC[C@H]2CC(OCc2c(-c4ccccc4OC(F)(F)F)noc2C2CC2)C3)s1 (stereo partly shown) has what pEC50?
Out: 7.77
